target: human activated protein C (human, UniProt P04070 43-197; P04070 212-461); experiment: cell-based or functional assay
Measured quantity: Mean clotting time (s), FVIII-deficient plasma, APC-antibody concentration 5 ug/ml

Binder: HAPC-14-6 (antibody, V domains shown, Whole IgG, backbone hIgG1; also called HPAC 14-6; No. 6) VH: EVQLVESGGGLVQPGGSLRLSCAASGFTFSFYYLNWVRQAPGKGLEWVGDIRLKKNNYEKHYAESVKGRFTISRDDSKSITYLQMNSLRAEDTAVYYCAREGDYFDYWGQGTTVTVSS VL: DIQLTQSPSSLSASVGDRVTITCRASESVDSFGATFMHWYQQKPGKAPKLLIYLASRLGSGVPSRFSGSGSGTDFTLTISSLQPEDFATYYCQQNNEDPYTFGQGTKLEIK
Unit: s
Result value: 162
